- protocol notes: acute toxicity (LD50) in mice, oral
- condition notes: in vivo; mouse, oral, 5% suspension in methylcellulose, 7 days; according to Litchfield and Wilcoxon
Define the label as satisfied when LD50 at 168 h is strictly less than 2000 mg/kg and as not satisfied in all remaining cases.

# compound, cat
records = [
    ("Cn1c(=O)c2c(ncn2CCOC(=O)COc2ccc(Cl)cc2)n(C)c1=O [Example 5]", "satisfied"),
    ("CC(Oc1ccc(Cl)cc1)C(=O)OCCn1cnc2c1c(=O)n(C)c(=O)n2C (centres unmarked) [Example 6]", "satisfied"),
    ("Cn1c(=O)c2c(ncn2CCOC(=O)COc2ccc(F)cc2)n(C)c1=O [Example 10]", "satisfied"),
    ("Cn1c(=O)c2c(ncn2CC(O)COC(=O)COc2ccc(Cl)cc2)n(C)c1=O (centres unmarked) [Example 2]", "not satisfied"),
    ("CC(Oc1cccc(C(F)(F)F)c1)C(=O)OCCn1cnc2c1c(=O)n(C)c(=O)n2C (centres unmarked) [Example 8]", "not satisfied"),
]

* * *

- protocol notes: antilipemic and anticholesterolemic action in rats on fatty diet, 14 days
- Format: in vivo, rat (male SPF Wistar)
- condition notes: 100 mg/kg, blood serum, 14 days

# compound, Final value cholesterol (mg %)
records = [
    ("Cn1c(=O)c2c(ncn2CC(COC(=O)COc2ccc(Cl)cc2)OC(=O)COc2ccc(Cl)cc2)n(C)c1=O (stereo not shown)", 122.0),
    ("Cn1c(=O)c2c(ncn2CC(O)COC(=O)COc2ccc(Cl)cc2)n(C)c1=O (stereo not shown)", 130.3),
    ("Cn1c(=O)c2c(ncn2CCOC(=O)C(Oc2ccc(Cl)cc2)Oc2ccc(Cl)cc2)n(C)c1=O", 111.0),
    ("Cn1c(=O)c2c(ncn2CCOC(=O)C(C)(C)Oc2ccc(Cl)cc2)n(C)c1=O", 95.2),
]

* * *

- protocol notes: acute toxicity (LD50) in rats, oral
- condition notes: rat, in vivo, po

# molecule, LD50 at 168 h
data = [
    ("Cn1c(=O)c2c(ncn2CC(COC(=O)COc2ccc(Cl)cc2)OC(=O)COc2ccc(Cl)cc2)n(C)c1=O (stereo not shown) [Example 3]", "> 4000 mg/kg"),
]

* * *

- protocol notes: acute toxicity (LD50) in mice, oral
- condition notes: mouse, in vivo, po

# compound string, LD50 at 168 h / mg/kg
data = [
    ("Cn1c(=O)c2c(ncn2CCOC(=O)C(Oc2ccc(Cl)cc2)Oc2ccc(Cl)cc2)n(C)c1=O", 1910),
]

Hello, the source for this data is patent US3984413A, in case you need it.
